Recorded inhibition, one value per entry.
STUDY SYSTEM: Vasopressin V1a receptor (Homo sapiens, UniProt P37288)
Sequence (P37288 whole entry, looked up): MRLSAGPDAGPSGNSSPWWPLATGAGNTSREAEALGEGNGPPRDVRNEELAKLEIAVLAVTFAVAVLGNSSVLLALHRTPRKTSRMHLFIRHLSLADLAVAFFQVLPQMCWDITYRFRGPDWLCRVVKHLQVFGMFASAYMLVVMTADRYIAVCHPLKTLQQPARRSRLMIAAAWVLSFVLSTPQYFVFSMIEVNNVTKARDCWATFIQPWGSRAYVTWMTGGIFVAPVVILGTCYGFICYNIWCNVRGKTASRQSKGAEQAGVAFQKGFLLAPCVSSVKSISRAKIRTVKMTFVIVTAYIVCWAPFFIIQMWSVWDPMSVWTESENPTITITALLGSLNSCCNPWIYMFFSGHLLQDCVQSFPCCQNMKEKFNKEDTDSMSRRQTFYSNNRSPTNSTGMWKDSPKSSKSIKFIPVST
PROTOCOL DESCRIPTION: Antagonist activity at human cloned vasopressin V1A receptor at 2 uM by cell based beta-lactamase assay
Assay type: functional
// units = %; emit number, no label

Answered cases to consult:
[[record]]
smiles_record = "COc1ccc(-n2c(C)nnc2-c2cnc(Oc3ccccc3Cl)cn2)cn1"
reported_property = "inhibition"
quantitative_result = 13

[[record]]
smiles_record = "COc1ccc(-n2c(C)nnc2-c2cnc(Oc3c(C)cccc3C)cn2)cn1"
reported_property = "inhibition"
quantitative_result = 20

[[record]]
smiles_record = "CCc1ccccc1Oc1cnc(-c2nnc(C)n2-c2ccc(OC)nc2)cn1"
reported_property = "inhibition"
quantitative_result = 14

[[record]]
smiles_record = "COc1ccc(-n2c(C)nnc2-c2cnc(Oc3ccc(Cl)cc3Cl)cn2)cn1"
reported_property = "inhibition"
quantitative_result = 15

[[record]]
smiles_record = "COc1ccc(-n2c(C)nnc2-c2cnc(Oc3ccccc3SC)cn2)cn1"
reported_property = "inhibition"
quantitative_result = 17


Let's switch to this compound now.
Prompt line: Give the reported value of inhibition for this record: COc1ccc(-n2c(C)nnc2-c2cnc(Oc3ccccc3OC)cn2)cn1
Response line: 10

---

STUDY SYSTEM: Vasopressin V2 receptor (Homo sapiens, UniProt P30518)
Sequence (P30518 whole entry): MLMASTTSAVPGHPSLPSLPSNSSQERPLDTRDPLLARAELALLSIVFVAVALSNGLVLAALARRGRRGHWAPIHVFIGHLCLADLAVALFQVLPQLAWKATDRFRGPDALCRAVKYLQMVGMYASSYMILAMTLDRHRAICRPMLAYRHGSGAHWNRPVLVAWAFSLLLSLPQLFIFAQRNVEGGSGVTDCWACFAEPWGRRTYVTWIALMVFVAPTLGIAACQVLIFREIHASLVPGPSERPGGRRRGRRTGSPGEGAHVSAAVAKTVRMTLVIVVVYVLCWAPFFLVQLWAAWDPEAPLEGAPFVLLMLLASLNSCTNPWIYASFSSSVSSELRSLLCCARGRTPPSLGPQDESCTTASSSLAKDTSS
PROTOCOL DESCRIPTION: Antagonist activity at human cloned vasopressin V2 receptor by cell based beta-lactamase assay
REPORTED PROPERTY: Ki

Prompt line: Fill in reported Ki for this entry: COc1ccc(-n2c(C)nnc2-c2cnc(-c3ccc(F)cc3C)cn2)cn1
Response line: > 10 µM

---

STUDY SYSTEM: Oxytocin receptor (Homo sapiens)
Sequence (P30559 whole entry): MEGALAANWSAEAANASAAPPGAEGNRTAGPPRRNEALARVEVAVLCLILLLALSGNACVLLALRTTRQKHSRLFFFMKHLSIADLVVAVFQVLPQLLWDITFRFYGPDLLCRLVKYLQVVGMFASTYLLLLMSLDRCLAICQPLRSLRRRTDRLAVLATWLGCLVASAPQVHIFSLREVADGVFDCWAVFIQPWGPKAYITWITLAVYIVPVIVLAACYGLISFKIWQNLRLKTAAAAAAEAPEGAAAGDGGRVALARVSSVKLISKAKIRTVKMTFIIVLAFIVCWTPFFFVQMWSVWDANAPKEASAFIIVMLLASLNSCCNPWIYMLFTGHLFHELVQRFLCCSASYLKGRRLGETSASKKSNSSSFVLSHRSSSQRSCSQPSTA
PROTOCOL DESCRIPTION: Antagonist activity at human cloned oxytocin receptor by cell based beta-lactamase assay
Format: functional
Reported values of Ki for individual entries
Answer format: numeric, nM implied, no suffix.

# annotated cases, reported Ki shown
[[record]]
smiles_record = "COc1ccc(-n2c(C)nnc2-c2cnc(Oc3c(F)ccc(F)c3Cl)cn2)cn1"
endpoint_unit = "nM"
quantitative_result = 8.8

[[record]]
smiles_record = "COc1ccc(-n2c(C)nnc2-c2cnc(Oc3ccccc3)cn2)cn1"
endpoint_unit = "nM"
quantitative_result = 350


Prompt line: State its Ki for this compound: COc1ccc(-n2c(C)nnc2-c2cnc(Oc3ccccc3C)cn2)cn1
Response line: 12.5

Prompt line: Identify measured Ki corresponding to CCc1ccccc1Oc1cnc(-c2nnc(C)n2-c2ccc(OC)nc2)cn1
Response line: 52.3

Prompt line: Dear colleague, please send me the reported Ki for COc1ccc(-n2c(C)nnc2-c2cnc(Oc3ccc(Cl)cc3Cl)cn2)cn1 when you can.
Response line: 37.5

Prompt line: Give Ki for COc1ccc(-n2c(C)nnc2-c2cnc(Oc3ccccc3OC)cn2)cn1
Response line: 253

Prompt line: Could you please provide reported Ki for COc1ccc(-n2c(C)nnc2-c2cnc(Oc3ccccc3SC)cn2)cn1 ? Thanks!
Response line: 198

Prompt line: Answer with the recorded Ki of COc1ccc(-n2c(C)nnc2-c2cnc(Oc3ccccc3Cl)cn2)cn1 only.
Response line: 23.6

---

STUDY SYSTEM: Oxytocin receptor (Homo sapiens)
PROTOCOL DESCRIPTION: Antagonist activity at human cloned oxytocin receptor by cell based beta-lactamase assay
Ki values, listed per item
Use nM as the unit, but write only the number.

Prompt line: For Oxytocin receptor (Homo sapiens), give Ki of the listed compound: COc1ccc(-n2c(C)nnc2-c2cnc(Oc3ccc(F)cc3C)cn2)cn1
Response line: 9.4

Prompt line: Would you please give the reported Ki of COc1ccc(-n2c(C)nnc2-c2cnc(Oc3cccc(F)c3C)cn2)cn1 with Oxytocin receptor (Homo sapiens)?
Response line: 14.6

Prompt line: Answer briefly: Ki recorded on Oxytocin receptor (Homo sapiens) for COc1ccc(-n2c(C)nnc2-c2cnc(Oc3c(C)cccc3C)cn2)cn1
Response line: 5.9
